assayed-system: P2X1 receptor (Rattus norvegicus, UniProt P47824)
Sequence (P47824 whole entry): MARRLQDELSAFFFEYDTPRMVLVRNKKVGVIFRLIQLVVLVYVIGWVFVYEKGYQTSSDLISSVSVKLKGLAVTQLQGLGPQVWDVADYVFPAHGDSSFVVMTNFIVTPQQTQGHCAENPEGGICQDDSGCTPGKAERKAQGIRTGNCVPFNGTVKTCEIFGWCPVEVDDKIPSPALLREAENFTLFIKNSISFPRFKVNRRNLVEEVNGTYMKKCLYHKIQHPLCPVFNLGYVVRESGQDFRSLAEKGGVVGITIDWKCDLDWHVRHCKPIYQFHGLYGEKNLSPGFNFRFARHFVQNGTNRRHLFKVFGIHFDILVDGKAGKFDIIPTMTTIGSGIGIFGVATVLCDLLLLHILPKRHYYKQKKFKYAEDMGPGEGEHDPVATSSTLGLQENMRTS
assay-details: two-electrode voltage clamp in Xenopus oocytes
observation-type: EC50 (µM)
Give bare numbers, in µM.

Q: Which EC50 is listed for `Nc1ncnc2c1ncn2[C@@H]1O[C@H](COP(=O)(O)OP(=O)(O)OP(=O)(O)O)[C@@H](O)[C@H]1O` ?
Result: 0.7
